meta.source: patent US11578084B2

# measured.on: human recombinant dopamine D2 receptor (Homo sapiens (Human), UniProt P14416)
# Sequence (P14416 whole entry): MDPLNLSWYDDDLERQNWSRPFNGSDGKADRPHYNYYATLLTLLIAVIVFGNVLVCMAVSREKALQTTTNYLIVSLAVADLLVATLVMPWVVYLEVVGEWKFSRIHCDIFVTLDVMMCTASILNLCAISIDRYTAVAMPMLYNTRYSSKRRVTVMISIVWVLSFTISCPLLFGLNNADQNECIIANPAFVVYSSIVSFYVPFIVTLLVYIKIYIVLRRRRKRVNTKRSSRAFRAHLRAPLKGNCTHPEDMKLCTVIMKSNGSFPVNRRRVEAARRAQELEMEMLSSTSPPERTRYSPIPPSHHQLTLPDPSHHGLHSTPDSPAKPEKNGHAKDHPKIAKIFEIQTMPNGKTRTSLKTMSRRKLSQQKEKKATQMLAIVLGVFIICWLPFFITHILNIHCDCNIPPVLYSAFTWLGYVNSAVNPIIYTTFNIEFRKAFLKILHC
# test.details: Test of binding inhibition for dopamine D2 receptor ([3H]-Methylspiperone SPA)
# condition.description: [3H]-Methylspiperone 1.2 nM, Jump-In HEK cell membranes; read-out: hD2_Ki
Labelling: Ki reported below 1000 nM becomes T; at or above becomes F.

INSERT INTO results (compound, class_label) VALUES
  ('Cn1ncc(CC(=O)N[C@H]2CC[C@H](CCN3CCc4nc(OCC(F)F)sc4CC3)CC2)n1 [I′-40]', 'F'),
  ('Cn1ncc(CC(=O)N[C@H]2CC[C@H](CCN3CCc4ccc(CCC(F)(F)F)nc4CC3)CC2)c1F [I′-19]', 'F'),
  ('Cc1ncc(CC(=O)N[C@H]2CC[C@](F)(CCN3CCc4nc(OCC(F)(F)F)sc4CC3)CC2)cn1 [I′-51]', 'T'),
  ('Cn1ncc(CC(=O)N[C@H]2CC[C@](F)(CCN3CCc4nc(OCC(F)(F)F)sc4CC3)CC2)n1 [I′-37]', 'F'),
  ('Cc1ncc(CC(=O)N[C@H]2CC[C@H](CCN3CCc4ccc(CCC(F)(F)F)nc4CC3)CC2)o1 [I′-10]', 'F'),
  ('Cc1ncc(/C=C/C(=O)N[C@H]2CC[C@](F)(CCN3CCc4nc(OCC(F)(F)F)sc4CC3)CC2)cn1 [I′-48]', 'F'),
  ('Cn1ncc(CC(=O)NC23CCC(CCN4CCc5nc(OCC(F)(F)F)sc5CC4)(CC2)CC3)n1 [II-4]', 'F'),
  ('Cc1cnc(CC(=O)NC23CCC(CCN4CCc5ccc(OCC(C)(F)F)nc5CC4)(CC2)CC3)o1 [II-14]', 'T');

----------
# measured.on: hERG channel (IKr) (Homo sapiens (Human), UniProt Q12809)
# Sequence (Q12809 whole entry): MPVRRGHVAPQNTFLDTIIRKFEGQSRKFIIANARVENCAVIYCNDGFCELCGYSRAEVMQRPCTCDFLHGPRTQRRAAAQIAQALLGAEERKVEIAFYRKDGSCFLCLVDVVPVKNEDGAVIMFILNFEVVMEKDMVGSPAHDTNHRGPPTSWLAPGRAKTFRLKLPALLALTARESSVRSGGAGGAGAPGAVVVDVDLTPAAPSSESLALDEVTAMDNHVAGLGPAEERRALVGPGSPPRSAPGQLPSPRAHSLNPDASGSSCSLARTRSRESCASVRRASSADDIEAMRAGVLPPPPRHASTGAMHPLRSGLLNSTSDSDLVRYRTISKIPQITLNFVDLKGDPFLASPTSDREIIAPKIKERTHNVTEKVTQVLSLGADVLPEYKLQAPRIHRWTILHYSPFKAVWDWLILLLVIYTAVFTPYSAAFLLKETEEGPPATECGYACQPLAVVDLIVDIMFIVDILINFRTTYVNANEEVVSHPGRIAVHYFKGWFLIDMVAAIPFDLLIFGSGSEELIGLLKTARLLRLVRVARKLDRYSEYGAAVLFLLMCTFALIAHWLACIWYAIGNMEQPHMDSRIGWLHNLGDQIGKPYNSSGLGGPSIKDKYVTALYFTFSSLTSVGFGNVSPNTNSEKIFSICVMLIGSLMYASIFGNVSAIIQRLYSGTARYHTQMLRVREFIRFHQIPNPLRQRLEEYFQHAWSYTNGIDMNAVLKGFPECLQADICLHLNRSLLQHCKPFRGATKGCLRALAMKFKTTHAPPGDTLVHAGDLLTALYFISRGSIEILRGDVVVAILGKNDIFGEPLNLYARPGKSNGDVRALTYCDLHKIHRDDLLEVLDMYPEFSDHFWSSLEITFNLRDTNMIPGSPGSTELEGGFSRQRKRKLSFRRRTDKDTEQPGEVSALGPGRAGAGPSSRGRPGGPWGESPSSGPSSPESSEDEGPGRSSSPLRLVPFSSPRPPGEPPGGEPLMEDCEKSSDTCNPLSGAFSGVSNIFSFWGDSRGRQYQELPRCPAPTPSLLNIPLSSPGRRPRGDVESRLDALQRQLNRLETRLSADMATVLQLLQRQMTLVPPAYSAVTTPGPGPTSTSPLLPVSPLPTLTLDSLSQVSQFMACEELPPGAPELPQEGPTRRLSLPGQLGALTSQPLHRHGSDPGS
# test.details: hERG test (whole cell patch clamp, IKr)
# Assay type: cell-based
# condition.description: human, CHO cells expressing hERG channel, pH 7.4, 3 μM, tail peak current
# Procedure: Test Example 10: hERG Test […] After a cell was retained at a membrane potential of −80 mV by whole cell patch clamp method using an automated patch clamp system (QPatch; Sophion Bioscience A/S) and gave a leak potential of −50 mV, IKr induced by depolarization pulse stimulation at +20 mV for 2 seconds and, further, repolarization pulse stimulation at −50 mV for 2 seconds, was recorded. […]
// reported inhibition at 3 µM per item
measure: inhibition at 3 µM (%)

INSERT INTO assay_data (molecule, quantity_unit, value_observed) VALUES
  ('Cn1ncc(CC(=O)N[C@H]2CC[C@](F)(CCN3CCc4ccc(OCC(F)F)nc4CC3)CC2)n1', '%', 23.8),
  ('Cc1nc(CC(=O)N[C@H]2CC[C@](F)(CCN3CCc4nc(OCC(C)(F)F)sc4CC3)CC2)no1', '%', 21.4),
  ('Cc1cc(OCC(=O)N[C@H]2CC[C@H](CCN3CCc4nc(OC5CC(F)(F)C5)sc4CC3)CC2)no1', '%', 32.6),
  ('Cn1cc2c(C(=O)NN3CCC(CCN4CCc5sc(OCC(F)(F)F)nc5C4)CC3)ccc(F)c2n1', '%', 5.59),
  ('Cc1nnc(CC(=O)N[C@H]2CC[C@H](CCN3CCc4nc(OC5CC(F)(F)C5)sc4CC3)CC2)o1', '%', 23.1),
  ('Cc1nnc(CC(=O)N[C@H]2CC[C@H](CCN3CCc4sc(C5CC(F)(F)C5)nc4C3)OC2)o1', '%', 10.6),
  ('Cc1nnc(CC(=O)N[C@H]2CC[C@](F)(CCN3CCc4nc(OCC(F)F)sc4CC3)CC2)s1', '%', 23.2),
  ('Cc1nc(CC(=O)N[C@H]2CC[C@H](CCN3CCc4nc(OCC(C)(F)F)sc4CC3)OC2)no1', '%', 20.8),
  ('Cc1ncc(OCC(=O)N[C@H]2CC[C@H](CCN3CCc4sc(C5CC(F)(F)C5)nc4C3)CC2)cn1', '%', 34.2),
  ('Cn1cc(CC(=O)N[C@H]2CC[C@H](CCN3CCc4nc(OC5CC(F)(F)C5)sc4CC3)CC2)cn1', '%', 24.3),
  ('COc1cc(CC(=O)N[C@H]2CC[C@H](CCN3CCc4nc(OCC(C)(F)F)sc4CC3)OC2)on1', '%', 32),
  ('CN1Cc2c(C(=O)N[C@H]3CC[C@H](CCN4CCc5sc(OC6CC(F)(F)C6)nc5C4)CC3)cccc2C1=O', '%', 21.3),
  ('Cc1nc(CC(=O)N[C@H]2CC[C@](F)(CCN3CCc4nc(OCC(F)F)sc4CC3)CC2)no1', '%', 22.3),
  ('Cc1ncc(CC(=O)N[C@H]2CC[C@](F)(CCN3CCc4ccc(OCC(F)F)nc4CC3)CC2)o1', '%', 20.1),
  ('Cn1c(C(=O)N[C@H]2CC[C@H](CCN3CCc4nc(OCC(C)(F)F)sc4CC3)CC2)cccc1=O', '%', 10.7),
  ('COC(CN1CCc2sc(OCC(C)(F)F)nc2C1)C1CC2(CC(NC(=O)c3cccc4nn(C)cc34)C2)C1 (single isomer, unassigned)', '%', 13.6),
  ('Cc1cnc(CC(=O)N[C@H]2CC[C@H](CCN3CCc4sc(C5CC(F)(F)C5)nc4C3)CC2)o1', '%', 18.1),
  ('Cn1cc(CC(=O)N[C@H]2CC[C@](F)(CCN3CCc4nc(OCC(F)F)sc4CC3)CC2)cn1', '%', 6.72),
  ('Cc1cnc(OCC(=O)N[C@H]2CC[C@H](CCN3CCc4sc(OCC(C)(F)F)nc4C3)CC2)cn1', '%', 14.3),
  ('Cn1cc(CC(=O)N[C@H]2CC[C@](F)(CCN3CCc4ccc(OCC(F)F)nc4CC3)CC2)cn1', '%', 14.3),
  ('Cc1nnc(CC(=O)N[C@H]2CC[C@](F)(CCN3CCc4ccc(OCC(F)F)nc4CC3)CC2)o1', '%', 14.9),
  ('Cc1nnc(CC(=O)N[C@H]2CC[C@](F)(CCN3CCc4nc(OCC(C)(F)F)sc4CC3)CC2)o1', '%', 3.83),
  ('Cn1ncc(CC(=O)N[C@H]2CC[C@](F)(CCN3CCc4nc(OCC(F)(F)F)sc4CC3)CC2)n1', '%', 19.6),
  ('Cc1nnc(CC(=O)N[C@H]2CC[C@H](CCN3CCc4ccc(OC(C)C)nc4CC3)CC2)s1', '%', 33.7),
  ('Cc1ncc(/C=C/C(=O)N[C@H]2CC[C@H](CCN3CCc4nc(OC5CC(F)(F)C5)sc4CC3)CC2)cn1', '%', 11.1),
  ('CC(Oc1nc2c(s1)CCN(CC[C@H]1CC[C@H](NC(=O)c3cccc4nn(C)cc34)CC1)CC2)C(F)F (single isomer, unassigned)', '%', 23.5),
  ('Cc1cnc(CC(=O)N[C@H]2CC[C@](F)(CCN3CCc4nc(OCC(C)(F)F)sc4CC3)CC2)o1', '%', 24.3),
  ('Cn1cc(CC(=O)N[C@H]2CC[C@](F)(CCN3CCc4ccc(OCC(C)(F)F)nc4CC3)CC2)cn1', '%', 21.6);
